Settings: 298.15 K; 101.33 kPa; Liquid
measuredAttribute: mass density (kg/m3)
Write down the numeric answer in kg/m3 and omit the unit.

Sample answers from the record:
C[C@@H](NCc1ccccc1)c1ccccc1 [(R)-(+)-N-benzyl-1-phenylethylamine]: 1007.7
COC(=O)[C@@H](C)CO [(2S)-3-hydroxy-2-methyl-propanoic acid methyl ester]: 1069.6
ClC[C@H]1CO1 [(2R)-(chloromethyl)-oxirane]: 1093.3
C[C@@H](N)c1ccccc1 [(R)-(+)-α-methylbenzylamine]: 965.38

Proceeding to the next compound to report its mass density.
Prompt: Give the reported value of mass density for this record: CCCC(=O)OC[C@@H]1CO1 [S-(-)-glycidyl butyrate]
Completion: 1029.7
